Molecular target: UniProt P09960
Sequence (P09960 whole entry): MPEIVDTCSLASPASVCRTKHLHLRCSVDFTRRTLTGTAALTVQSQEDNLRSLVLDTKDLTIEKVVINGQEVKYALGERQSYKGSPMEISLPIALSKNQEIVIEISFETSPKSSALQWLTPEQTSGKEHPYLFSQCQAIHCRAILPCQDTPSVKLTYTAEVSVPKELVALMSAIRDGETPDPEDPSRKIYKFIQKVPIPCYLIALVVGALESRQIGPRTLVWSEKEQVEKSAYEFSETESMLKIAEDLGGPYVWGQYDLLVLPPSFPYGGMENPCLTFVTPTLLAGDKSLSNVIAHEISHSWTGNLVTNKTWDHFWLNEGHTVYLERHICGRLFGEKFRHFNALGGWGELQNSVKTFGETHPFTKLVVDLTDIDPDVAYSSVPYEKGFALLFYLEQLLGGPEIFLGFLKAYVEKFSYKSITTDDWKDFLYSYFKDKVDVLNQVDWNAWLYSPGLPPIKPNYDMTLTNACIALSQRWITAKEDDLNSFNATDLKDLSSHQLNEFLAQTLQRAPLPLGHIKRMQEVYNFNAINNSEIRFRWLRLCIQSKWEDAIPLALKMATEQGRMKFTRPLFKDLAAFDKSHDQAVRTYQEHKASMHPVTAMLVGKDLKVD
Provide the recorded pIC50 for the entries that follow.
As a rule, pIC50 stands for the negative log10 of the concentration, concentration in M.

Q) pIC50 lookup needed for CN(CCCCC(=O)O)CCCN(C)CC(=O)Nc1ccc(Oc2ccccc2)cc1 , thanks.
A) 7.74

Q) Quick check: pIC50 of CN(Cc1ccc(C(=O)O)cc1)CC1CCCN1CC(=O)Nc1ccc(Oc2ccccc2)cc1 (stereo in doubt; 4s) ?
A) 7.77

Q) Query (molecule): CN(CCN(C)Cc1ccc(C(=O)O)cc1)CC(=O)Nc1ccc(Oc2ccccc2)cc1 ; field requested: pIC50
A) 7.82

Q) Would you mind telling me what pIC50 value was observed for CN(CCCN(C)Cc1ccc(C(=O)O)c(Br)c1)CC(=O)Nc1ccc(Oc2ccccc2)cc1 ?
A) 8.00

Q) I'd like to know its pIC50. The molecule in question is CN(CCCN(C)Cc1ccc(C(=O)O)cc1F)CC(=O)Nc1ccc(Oc2ccccc2)cc1
A) 8.15
